biological target: UniProt:P0DPI0; assay: Inhibition of Clostridium botulinum BoNT/A light chain at 30 uM using SNAPtide as substrate preincubated with enzyme for 2 mins followed by substrate addition and measured for 0-5 mins by FRET assay relative to control
Sequence (P0DPI0 2-448 limits assumed): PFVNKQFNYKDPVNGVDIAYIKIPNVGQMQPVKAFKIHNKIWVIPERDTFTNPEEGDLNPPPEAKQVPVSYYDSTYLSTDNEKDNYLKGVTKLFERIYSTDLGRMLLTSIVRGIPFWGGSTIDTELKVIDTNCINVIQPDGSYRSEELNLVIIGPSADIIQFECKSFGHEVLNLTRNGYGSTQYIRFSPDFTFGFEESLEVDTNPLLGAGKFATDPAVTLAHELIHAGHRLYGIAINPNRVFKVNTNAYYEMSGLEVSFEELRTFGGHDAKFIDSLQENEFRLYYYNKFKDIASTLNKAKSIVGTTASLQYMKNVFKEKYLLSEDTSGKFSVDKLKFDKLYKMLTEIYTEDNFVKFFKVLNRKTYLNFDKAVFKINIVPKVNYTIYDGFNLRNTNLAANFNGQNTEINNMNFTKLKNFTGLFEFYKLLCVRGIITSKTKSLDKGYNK
measurement.type: inhibition

{"given.smiles": "CC[C@H](C)[C@H](NC(=O)c1cccc(-c2cc(Cl)ccc2Cl)c1)C(=O)NO", "measurement.type": "inhibition", "measured.value": "68%"}
{"given.smiles": "CC[C@H](C)[C@H](NS(=O)(=O)c1cccc(-c2cccc(Cl)c2)c1)C(=O)NO", "measurement.type": "inhibition", "measured.value": "44%"}
{"given.smiles": "CC[C@H](C)[C@H](NC(=O)c1cccc(-c2cc3ccccc3o2)c1)C(=O)NO", "measurement.type": "inhibition", "measured.value": "80%"}
{"given.smiles": "CC[C@H](C)[C@H](NS(=O)(=O)c1cccc(-c2ccco2)c1)C(=O)NO", "measurement.type": "inhibition", "measured.value": "40%"}
{"given.smiles": "CC[C@H](C)[C@H](NS(=O)(=O)c1cccc(-c2ccccc2Cl)c1)C(=O)NO", "measurement.type": "inhibition", "measured.value": "50%"}
{"given.smiles": "CC(C)C[C@@H](NS(=O)(=O)c1cccc(-c2cc3ccccc3o2)c1)C(=O)NO", "measurement.type": "inhibition", "measured.value": "86%"}
{"given.smiles": "CCCC[C@H](NS(=O)(=O)c1cccc(-c2cc3ccccc3o2)c1)C(=O)NO", "measurement.type": "inhibition", "measured.value": "44%"}
{"given.smiles": "CC[C@H](C)[C@H](NC(=O)c1cccc(-c2cccc(Cl)c2)c1)C(=O)NO", "measurement.type": "inhibition", "measured.value": "64%"}
{"given.smiles": "CC[C@H](C)[C@H](NC(=O)c1cccc(-c2ccccc2Cl)c1)C(=O)NO", "measurement.type": "inhibition", "measured.value": "50%"}
{"given.smiles": "CC[C@H](C)[C@H](NC(=O)c1cccc(-c2ccco2)c1)C(=O)NO", "measurement.type": "inhibition", "measured.value": "58%"}
{"given.smiles": "CC[C@H](C)[C@H](NS(=O)(=O)c1cccc(-c2ccc(Cl)c(Cl)c2)c1)C(=O)NO", "measurement.type": "inhibition", "measured.value": "26%"}
{"given.smiles": "CC[C@H](C)[C@H](NS(=O)(=O)c1cccc(-c2ccoc2)c1)C(=O)NO", "measurement.type": "inhibition", "measured.value": "14%"}
{"given.smiles": "CC[C@H](C)[C@H](NS(=O)(=O)c1cccc(-c2c(Cl)cccc2Cl)c1)C(=O)NO", "measurement.type": "inhibition", "measured.value": "66%"}
{"given.smiles": "CC[C@H](C)[C@H](NS(=O)(=O)c1cccc(-c2ccc(Cl)cc2Cl)c1)C(=O)NO", "measurement.type": "inhibition", "measured.value": "48%"}
{"given.smiles": "CC[C@H](C)[C@H](NS(=O)(=O)c1cccc(-c2cc3ccccc3o2)c1)C(=O)NO", "measurement.type": "inhibition", "measured.value": "61%"}
{"given.smiles": "CC(C)C[C@@H](NC(=O)c1cccc(-c2cc3ccccc3o2)c1)C(=O)NO", "measurement.type": "inhibition", "measured.value": "58%"}
{"given.smiles": "CC[C@@H](C)[C@@H](NC(=O)c1cccc(-c2cc3ccccc3o2)c1)C(=O)NO", "measurement.type": "inhibition", "measured.value": "16%"}
{"given.smiles": "CC[C@@H](C)[C@@H](NS(=O)(=O)c1cccc(-c2cc3ccccc3o2)c1)C(=O)NO", "measurement.type": "inhibition", "measured.value": "94%"}
{"given.smiles": "CC[C@H](C)[C@H](NS(=O)(=O)c1cccc(-c2ccc([N+](=O)[O-])cc2)c1)C(=O)NO", "measurement.type": "inhibition", "measured.value": "41%"}
{"given.smiles": "CC[C@H](C)[C@H](NS(=O)(=O)c1cccc(-c2cc(Cl)ccc2Cl)c1)C(=O)NO", "measurement.type": "inhibition", "measured.value": "29%"}
{"given.smiles": "CC[C@H](C)[C@H](NS(=O)(=O)c1cccc(-c2cccc([N+](=O)[O-])c2)c1)C(=O)NO", "measurement.type": "inhibition", "measured.value": "34%"}
